Tested on: HCC-2998 colon
Assay: NCI-60 one-dose screen, 48 h
Conditions: 10 µM unless noted
Compounds without any hit were thinned out: in the full panel of roughly 83,000, 20% have a hit. Active and inactive are the calls of the source. Rule for the calls: active = growth percent below 10; inactive = the rest.
Lab note: assign the record to one of Y (active), N (inactive)

Task item: Which outcome did this test record for the compound CCOC(=O)CC1CSC(Nc2ccccc2)=N1 (stereo not given) ?
Reply: N

Task item: Which outcome did this test record for the compound Cc1ccc(S(=O)(=O)c2nc(-c3ccccc3)oc2Sc2nc3ccccc3s2)cc1 ?
Reply: N

Task item: Which outcome did this test record for the compound CS(=O)(=O)c1ccc(NC(=O)c2ccccc2)nc1 ?
Reply: N

Task item: Which outcome did this test record for the compound O=C(CCCCCNC(=O)c1cc(=O)c(O)co1)Nc1ccccc1 ?
Reply: N

Task item: Which outcome did this test record for the compound Oc1ccc(/C=C/c2ccc(O)cc2)cc1 ?
Reply: N

Task item: Which outcome did this test record for the compound O=C(/C=C/C12c3ccccc3C(c3ccccc31)C1C(=O)NC(=O)C12)c1ccc(Br)cc1 (stereo not given) ?
Reply: N

Task item: Which outcome did this test record for the compound CCOC(=O)c1c(C)nc2c(c1N)/C(=C/c1ccc(OC)cc1)C(=O)N2Cc1ccccc1 ?
Reply: N

Task item: Which outcome did this test record for the compound CCN1C(=O)N(CC)C2C1NC(=S)N2/N=C/c1ccc(OC)cc1 (stereo not given) ?
Reply: N

Task item: Which outcome did this test record for the compound CC1(C)CC[C@]2(C(=O)N[C@H](CO)Cc3ccccc3)CC[C@]3(C)C(=CC[C@@H]4[C@@]5(C)CCCNC(C)(C)[C@@H]5CC[C@]43C)[C@@H]2C1 ?
Reply: N

Task item: Which outcome did this test record for the compound CC(=O)ON1CCCC(P(=O)(OCCSC(=O)C(C)(C)C)OCCSC(=O)C(C)(C)C)C1=O (stereo not given) ?
Reply: N

Task item: Which outcome did this test record for the compound O=c1c2ccccc2c(=O)c2c1sc1c(=O)c3ccc(O)cc3c(=O)c12 ?
Reply: Y

Task item: Which outcome did this test record for the compound CCCCNc1cc(-c2cn[nH]c2-c2cc(C)cc(OC)c2)nc(-c2cccnc2)n1 ?
Reply: N

Task item: Which outcome did this test record for the compound N#Cc1cccc(C2C3=C(COC3=O)N(CCO)c3cc4c(cc32)OCO4)c1 (stereo not given) ?
Reply: N

Task item: Which outcome did this test record for the compound CC1(C)N=C(N)N=C(N)N1c1ccc(CCCCc2ccccc2)c(Cl)c1 ?
Reply: Y

Task item: Which outcome did this test record for the compound Cc1ccc(C)c2c(C)c(C(=O)Nc3cccc(-n4cccn4)c3)oc12 ?
Reply: N

Task item: Which outcome did this test record for the compound COc1ccc(NC(=O)Nc2ccc(OCCCCCC(=O)NO)cc2)cc1 ?
Reply: N

Task item: Which outcome did this test record for the compound CC1=C(C(=O)Nc2nc(-c3ccc(Cl)cc3)cs2)[C@H](c2ccc(O)cc2)NC(=O)N1 ?
Reply: N

Task item: Which outcome did this test record for the compound Cc1ccc(-c2nc(N3CCNCC3)c3oc(-c4ccc(C)cc4)nc3n2)cc1 ?
Reply: N

Task item: Which outcome did this test record for the compound N#C/C(=C\c1cn(Cc2ccccc2)c2ccccc12)C(=O)Nc1ncc(Cc2ccccc2Cl)s1 ?
Reply: N

Task item: Which outcome did this test record for the compound c1ccc2c(c1)CCCc1nnc3nc4ccccc4n3c1-2 ?
Reply: N

Task item: Which outcome did this test record for the compound CC(C)N1C(=O)/C(=c2\sc3n(c2=O)C2C(NN=3)N(C)C(=O)N2C)c2ccccc21 (stereo not given) ?
Reply: N

Task item: Which outcome did this test record for the compound O=C1/C(=C/c2ccccc2F)CN(C(=O)C(Cl)Cl)C/C1=C\c1ccccc1F ?
Reply: Y

Task item: Which outcome did this test record for the compound N#Cc1ccc(O)c(C2=NCC(Cc3ccccc3)O2)c1 (stereo not given) ?
Reply: N

Task item: Which outcome did this test record for the compound Cc1c2ccncc2c(C)c2c1c1cc(CO)ccc1n2C ?
Reply: N

Task item: Which outcome did this test record for the compound S=C(c1ccc2c(c1)OCO2)N1CCN(c2cccc(Cl)c2)CC1 ?
Reply: Y

Task item: Which outcome did this test record for the compound N[C@H]1CCC[C@@H]1NCCCCN1C(=O)c2cccc3cc([N+](=O)[O-])cc(c23)C1=O ?
Reply: N

Task item: Which outcome did this test record for the compound COc1ccc(-c2ccc(-c3ccc(C(=N)N)nc3)s2)cc1Cl ?
Reply: Y

Task item: Which outcome did this test record for the compound COc1ccc2[nH]cc(-c3nc(-c4c[nH]c5c(Cl)nccc45)cs3)c2c1 ?
Reply: N

Task item: Which outcome did this test record for the compound CNC(=O)c1ccccc1Nc1nc(Nc2cc(OC)c(OC)c(OC)c2)ncc1Br ?
Reply: Y

Task item: Which outcome did this test record for the compound CN(C)CCN1C(=O)c2cccc3c(/C=C/CN4C(=O)c5cccc6cccc(c56)C4=O)ccc(c23)C1=O ?
Reply: N

Task item: Which outcome did this test record for the compound COc1ccc(/C=C/C(=O)c2cc3c(N)c(C(=O)Nc4cccc(Cl)c4C)sc3nc2C)cc1 ?
Reply: Y

Task item: Which outcome did this test record for the compound C=C(CNCCO)[C@@H]1CC[C@]2(CO)CC[C@]3(C)[C@H](CC[C@@H]4[C@@]5(C)CCC(N)C(C)(C)[C@@H]5CC[C@]43C)[C@@H]12 (stereo not given in full) ?
Reply: Y

Task item: Which outcome did this test record for the compound Cc1cccc2c1C[C@@]1(C2=O)C(c2ccc(C(C)(C)C)cc2)=NOS1=O (stereo not given in full) ?
Reply: N

Task item: Which outcome did this test record for the compound Cc1ccc(C=C2C(=O)NC(=O)NC2=O)cc1 ?
Reply: N

Task item: Which outcome did this test record for the compound COC(=O)C(Cc1ccccc1)NC(=O)c1ccc(NC(=O)c2[nH]c(C)c(Cl)c2Cl)c(OC(C)C)c1 (stereo not given) ?
Reply: N

Task item: Which outcome did this test record for the compound CN1C(=O)/C(=C/c2ccc(C(=O)Nc3ncc(Cc4cccc(Cl)c4)s3)cc2)SC1=S ?
Reply: N

Task item: Which outcome did this test record for the compound COc1ccc(C[n+]2c3ccccc3n3c4ccc(N)cc4ccc32)c(OC)c1OC ?
Reply: N

Task item: Which outcome did this test record for the compound Oc1c(CN2CCOCC2)cc(COCc2ccccc2)c2cccnc12 ?
Reply: N

Task item: Which outcome did this test record for the compound NC(=O)c1cnc(Nc2cccc(N)c2)nc1NCCCNC(=O)C1CCC1 ?
Reply: N

Task item: Which outcome did this test record for the compound CCNC(=O)Oc1ccc(/C(=C(/CC)Cc2ccccc2)c2ccc(OCCN3CCCC3)cc2)cc1 ?
Reply: N
